// values below are reported log10 of IC50
Target Or System: CREBBP (1084-1701) (Homo sapiens, UniProt Q92793)
Construct: measured in the following biochemical assay using CREBBP (1084-1701); purchased
Sequence (Q92793 1084-1701): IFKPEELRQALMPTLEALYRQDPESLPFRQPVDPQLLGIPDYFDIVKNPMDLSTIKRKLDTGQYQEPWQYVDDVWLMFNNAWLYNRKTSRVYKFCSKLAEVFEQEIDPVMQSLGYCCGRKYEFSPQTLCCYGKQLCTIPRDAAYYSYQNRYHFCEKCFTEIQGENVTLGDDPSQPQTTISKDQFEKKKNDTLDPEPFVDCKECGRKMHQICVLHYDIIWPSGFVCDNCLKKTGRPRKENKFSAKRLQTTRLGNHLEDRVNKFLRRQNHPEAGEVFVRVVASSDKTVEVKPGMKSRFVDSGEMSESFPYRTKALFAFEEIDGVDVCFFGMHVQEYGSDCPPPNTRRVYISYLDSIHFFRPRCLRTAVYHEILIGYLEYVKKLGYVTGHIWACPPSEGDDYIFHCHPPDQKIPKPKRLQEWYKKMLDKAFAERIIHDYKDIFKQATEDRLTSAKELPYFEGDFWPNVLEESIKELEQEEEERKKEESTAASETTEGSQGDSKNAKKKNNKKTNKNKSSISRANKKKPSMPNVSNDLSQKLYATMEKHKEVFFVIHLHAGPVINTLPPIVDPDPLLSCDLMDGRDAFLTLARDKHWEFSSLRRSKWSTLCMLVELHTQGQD
Assay Explanation: Biochemical assay for CREBBP (1084-1701), SAMDI
Particulars: SAMDI, read-out: CREBBP Biochemistry IC50
Note the log scale: values are log10 of IC50 expressed in nM.

Please review the following examples before continuing.
CCn1ncc(CN(C)C(=O)c2nc(-c3ccc(OCCNC)c(Cl)c3)nc3ccc(Cl)cc23)c1C	1.49
CCn1ncc(CN(C)C(=O)c2nc(-c3ccc(OCCC(=O)NC)c(OC)c3)nc3ccc(Cl)cc23)c1C	3.92
CCn1ncc(CN(C)C(=O)c2nc(-c3cc(Cl)cc(CN4CCNCC4)c3)nc3ccc(Cl)cc23)c1C	2.57
CCn1ncc(CN(C)C(=O)c2nc(-c3cc(-c4ncc[nH]4)n(C)n3)nc3ccc(Cl)cc23)c1C	1.47

Consider the molecule shown here: CCn1ncc(CN(C)C(=O)c2nc(-c3cc4c(N)nn(C)c4cc3C)nc3ccc(Cl)cc23)c1C What is its recorded log10 of IC50?
4.40

Query: log10 of IC50; subject: CCn1ncc(CN(C)C(=O)c2nc(-c3ncccc3OC)nc3ccc(Cl)cc23)c1C
4.32

# input molecule: CCn1ncc(CN(C)C(=O)c2cc(-c3cnc(NCCNC)c(C)n3)nc3ccc(Cl)cc23)c1C ; wanted: its log10 of IC50
1.73

Give the measured log10 of IC50 of CCc1ncc(CN(C)C(=O)c2cc(-c3cc(-c4ncc[nH]4)n(C)n3)nc3ccc(COC)cc23)n1C .
1.53

* * *

pIC50 overview
System: H3K18Ac in HB-CLS-2 cells
Assay Explanation: H3K18AC in-cell western (ICW) assay
Type: cell-based
Particulars: H3K18Ac in-cell western; read-out: CREBBP ICW IC50
Lab note: report pIC50 as minus log10 of the concentration in molar units, number only.

Here are 3 molecules together with their reported answers.
CCc1ncc(CN(C)C(=O)c2cc(-c3ccc(NCC(O)CN(C)C)c(C)n3)nc3ccc(Cl)cc23)n1C (stereo not shown)	7.14
CCn1ncc(CN(C)C(=O)c2nc(-c3cc4c(NC)n[nH]c4cc3C)nc3ccc(Br)cc23)c1C	6.81
CCn1ncc(CN(C)C(=O)c2nc(-c3ccnc(Cl)c3)nc3ccc(NC)cc23)c1C	5.85

pIC50 for CCn1ncc(CN(C)C(=O)c2cc(-c3ccc(NCC(O)CN(C)C)c(C)n3)nc3ccc(Cl)cc23)c1C (stereo not shown) ?
7.19

Give the measured pIC50 of CCn1ncc(CN(C)C(=O)c2nc(-c3ccc(OCCCN(C)C(=O)OC(C)(C)C)c(C)c3Cl)nc3ccc(Cl)cc23)c1C .
5.77

Entry CCn1ncc(CN(C)C(=O)c2nc(-c3cc(Cl)cc(NCCCN(C)C(=O)OC(C)(C)C)c3)nc3ccc(Cl)cc23)c1C has what pIC50?
5.55

// lookup pIC50 for CCn1ncc(CN(C)C(=O)c2nc(N3CCn4ncnc4C3)nc3ccc(Cl)cc23)c1C
4.70

* * *

Target Or System: EP300 (P300(1048-1664)) (Homo sapiens)
Construct: P300(1048-1664)
Assay Explanation: Biochemical assay for EP300, SAMDI
Particulars: P300(1048-1664), Peptide #233, Ac-CoA, SAMDI mass spectrometry; read-out: EP300 Biochemistry IC50
Excerpt: The following example describes materials and methods relating to a biochemical assay for EP300. IC50 values (micromolar (μM)) are summarized in Table 1, Table 2, and Table 3 under the column labeled: “EP300 Biochemistry IC50 (micromolar).”
Observation Type: IC50 (nM)
Record the value in nM, omitting the unit from your answer.

Sample answers from the record:
CCn1ncc(CN(C)C(=O)c2nc(-c3cnc4n[nH]c(NC)c4c3)nc3ccc(Cl)cc23)c1C [Compound 632]	4.6
CCc1ncc(CN(C)C(=O)c2nc(-c3cc(-c4ncc[nH]4)n(C)n3)nc3ccc(Cl)cc23)n1C [Compound 631]	8.8
Cc1nc(-c2cc(C(=O)N(C)Cc3cnc(C4CC4)n3C)c3cc(Cl)ccc3n2)ccc1NC1CCN(C)C1 (stereo not shown) [Compound 640]	9

Returns the measured IC50 for the input compound. Input: CCc1ncc(CN(C)C(=O)c2cc(-c3ccc(NC4CCN(C)C4)c(C)n3)nc3ccc(Cl)cc23)n1C (stereo not shown) [Compound 642]
9.1

* * *

Target Or System: EP300 (P300(1048-1664)) (Homo sapiens, UniProt Q09472)
Construct: P300(1048-1664)
Sequence (Q09472 1048-1664): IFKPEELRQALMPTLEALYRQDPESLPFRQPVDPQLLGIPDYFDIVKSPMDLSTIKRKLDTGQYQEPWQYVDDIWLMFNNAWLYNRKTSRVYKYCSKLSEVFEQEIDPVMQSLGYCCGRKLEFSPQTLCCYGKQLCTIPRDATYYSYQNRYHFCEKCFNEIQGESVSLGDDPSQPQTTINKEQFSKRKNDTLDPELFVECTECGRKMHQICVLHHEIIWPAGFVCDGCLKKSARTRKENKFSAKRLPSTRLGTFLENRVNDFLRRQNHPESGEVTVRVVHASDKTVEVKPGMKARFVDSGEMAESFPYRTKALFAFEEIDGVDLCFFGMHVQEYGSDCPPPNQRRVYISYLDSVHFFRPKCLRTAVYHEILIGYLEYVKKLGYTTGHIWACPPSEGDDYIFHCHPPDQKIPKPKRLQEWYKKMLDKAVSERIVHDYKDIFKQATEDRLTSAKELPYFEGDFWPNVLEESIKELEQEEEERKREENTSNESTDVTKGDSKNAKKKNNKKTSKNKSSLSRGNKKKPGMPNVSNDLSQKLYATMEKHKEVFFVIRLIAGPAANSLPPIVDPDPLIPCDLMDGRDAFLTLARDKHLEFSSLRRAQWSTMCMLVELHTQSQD
Assay Explanation: Biochemical assay for EP300, SAMDI
Particulars: EP300, SAMDI; read-out: EP300 Biochemistry IC50
pIC50: −log10 of the molar value.
Output 1.0 for pIC50 not less than 8; output 0.0 otherwise.

Example entries and their recorded answers appear below.
CCn1ncc(CN(C)C(=O)c2cc(-c3ccc(NCCN(C)C(=O)OC(C)(C)C)cn3)nc3ccc(Cl)cc23)c1C	0.0
CCc1onc(CN(C)C(=O)c2cc(-c3ccc(NCCNC)c(C)n3)nc3ccc(Cl)cc23)c1C	0.0
CCn1ncc(CN(C)C(=O)c2nc(-c3cc(C)nc(CNC)c3)nc3ccc(Cl)cc23)c1C	0.0

Please find the next compound below.
Does the compound CCc1ncc(CN(C)C(=O)c2nc(-c3cc(C)c4[nH]c(=O)[nH]c4c3)nc3ccc(Cl)cc23)n1C have recorded pIC50 that is 8 or more?
1.0

* * *

Tested on: H3K18Ac in HB-CLS-2 cells
Assay Explanation: H3K18AC in-cell western (ICW) assay
Assay type: cell-based
Particulars: H3K18Ac in-cell western, HB-CLS-2 cells; read-out: CREBBP ICW IC50
Entries and their measured pIC50 follow.
For clarity, pIC50 is expressed as the negative log10 of concentration in mol/L.

Take a look at these entries with their results.
CCn1ncc(CN(C)C(=O)c2cc(-c3ccc(N(C)CCN(C)C)c(C)n3)nc3ccc(Cl)cc23)c1C [Compound 420]	6.13
CCn1ncc(CN(C)C(=O)c2nc(-c3cc(Cl)ccc3Cl)nc3ccc(Cl)cc23)c1C [Compound 297]	5.49
CCn1ncc(CN(C)C(=O)c2nc(-c3ccccc3C)nc3ccc(Cl)cc23)c1C [Compound 362]	5.92
CCn1ncc(CN(C)C(=O)c2nc(-c3ccc(OC4CCNCC4)c(OC)c3)nc3ccc(Cl)cc23)c1C [Compound 428]	5.85
CCn1ncc(CN(C)C(=O)c2nc(-c3ccc(OCCCN(C)C(=O)OC(C)(C)C)cc3)nc3ccc(Cl)cc23)c1C [Compound 242]	4.70
CCn1ncc(CN(C)C(=O)c2nc(-c3ccc(OCCNC)nn3)nc3ccc(Cl)cc23)c1C [Compound 414]	4.70
CCn1ncc(CN(C)C(=O)c2nc(-c3cn(CCN(C)C(=O)OC(C)(C)C)cn3)nc3ccc(Cl)cc23)c1C [Compound 240]	4.70
Cc1c(CN(C)C(=O)c2nc(-c3ccccc3Cl)nc3ccc(Cl)cc23)cnn1C1CC1 [Compound 285]	5.57

Reported pIC50, compound CCn1ncc(CN(C)C(=O)c2nc(-c3ccccc3Cl)nc3cc(C)c(Cl)cc23)c1C [Compound 359] : ____
6.00

Can you look up the measured pIC50 of CCN(Cc1cnn(CC)c1C)C(=O)c1nc(-c2cccc(Cl)c2)nc2ccc(Cl)cc12 [Compound 347] for me?
5.25

Requested read-out: pIC50. Entry: CCc1[nH]cc(CN(C)C(=O)c2nc(-c3ccccc3Cl)nc3ccc(Cl)cc23)c1C [Compound 221]
4.70

Quick one: pIC50 of CCn1ncc(CN(C)C(=O)c2nc(-c3ccc(OCCNC(=O)OC(C)(C)C)c(F)c3)nc3ccc(Cl)cc23)c1C [Compound 252] ?
4.70

Need pIC50, item CCn1ncc(CN(C)C(=O)c2nc(-c3cc(CNC)nn3C)nc3ccc(Cl)cc23)c1C [Compound 403]
4.92

Tell me the measured pIC50 of CCn1ncc(CN(C)C(=O)c2nc(-c3ccc(C)cc3)nc3ccc(Cl)cc23)c1C [Compound 282] , please.
4.96

Reported pIC50 for CCn1ncc(CN(C)C(=O)c2nc(-c3cnn(CCN(C)C(=O)OC(C)(C)C)c3)nc3ccc(Cl)cc23)c1C [Compound 197] : what is it?
4.70

* * *

Target Or System: EP300 (P300(1048-1664)) (Homo sapiens)
Construct: P300(1048-1664)
Assay Explanation: Biochemical assay for EP300, SAMDI
Particulars: EP300, SAMDI; read-out: EP300 Biochemistry IC50
Excerpt: The following example describes materials and methods relating to a biochemical assay for EP300. IC50 values (micromolar (μM)) are summarized in Table 1, Table 2, and Table 3 under the column labeled: “EP300 Biochemistry IC50 (micromolar).”
Documented IC50 across a set of molecules
Please don't drop the unit; write it after the number.

CCn1ncc(CN(C)C(=O)c2nc(-c3cnc(CNC(C)=O)n3C)nc3ccc(Cl)cc23)c1C	50 µM
CCn1ncc(CN(C)C(=O)c2nc(-c3ccc(OCCCNC)cc3)nc3ccc(Cl)cc23)c1C	4.4 µM
CCc1ncc(CN(C)C(=O)c2nc(-c3cc(C)nc(NCCN(C)C)c3)nc3ccc(Cl)cc23)n1C	0.0142 µM

Now turn to the next molecule.
// returns reported IC50 for input CCc1noc(CN(C)C(=O)c2cc(-c3ccc(NCCNC)c(C)n3)nc3ccc(Cl)cc23)c1C
0.022 µM
